Values compiled from patent US4791139A.

Test system: Musca domestica (houseflies - adults)
Assay: Contact test, houseflies - adults (MD), Cotton wool/sugar
Format: in vivo
Conditions: 24 h, 500 ppm, 1 day, read-out: MD grading of mortality
Readout Type: mortality at 500 ppm

Use the examples below as a reference point.
CC1(C)Oc2ccc(C(CCCc3cccc(Oc4ccccc4)c3)C(F)(F)F)cc2O1 (stereo not drawn) [Compound 58] ... 80 to 100%
FC(F)C(CCCc1cccc(Oc2ccccc2)c1)c1ccc(OC(F)(F)F)cc1 (racemic) [Compound 83] ... 80 to 100%
CCOc1ccc(C(CCCc2cccc(Oc3ccccc3)c2)C(F)(F)Cl)cc1 (racemic) [Compound 69] ... 80 to 100%
Fc1ccc(CCC=C(c2ccc(OC(F)(F)F)cc2)C(F)F)cc1Oc1ccccc1 [Compound 26] ... 80 to 100%
Fc1cc(C(=CC=Cc2cccc(Oc3ccccc3)c2)C(F)(F)F)cc(F)c1OC(F)(F)F [Compound 75] ... < 50%

Pending compound:
## Input Given the entry Fc1ccc(C(CCCc2cccc(Oc3ccccc3)c2)C(F)(F)F)c(F)c1OC(F)(F)F (racemic) [Compound 72] , what mortality at 500 ppm was observed with Musca domestica (houseflies - adults)?
## Output < 50%

---

Below, each entry is listed with its recorded mortality at 500 ppm.
System: Blattella germanica (cockroach nymphs)
Assay: Residual test, cockroach nymphs (BG), Plastic pot
Type: in vivo
Conditions: 72 h, 500 ppm, 3 days, read-out: BG grading of mortality

FC(F)(F)C(=CCCc1cccc(Oc2ccccc2)c1)c1ccc2c(c1)OCO2 [Compound 41] ... < 50%
CC1Oc2ccc(C(CCCc3cccc(Oc4ccccc4)c3)C(F)(F)F)cc2O1 (centres unmarked) [Compound 61] ... 80 to 100%
FC(F)(F)C(CCCc1cccc(Oc2ccccc2)c1)c1ccc(OC(F)(F)C(F)(F)Br)cc1 (racemic) [Compound 68] ... 80 to 100%
CCOc1ccc(/C(=C\CCc2cccc(Oc3ccccc3)c2)C(F)(F)F)cc1 [Compound 3] ... 80 to 100%
Fc1ccc(C(CCCc2cccc(Oc3ccccc3)c2)C(F)(F)F)c(F)c1OC(F)(F)F (racemic) [Compound 72] ... 80 to 100%
CCOc1ccc(/C(=C\C=Cc2ccc(F)c(Oc3ccccc3)c2)C(F)(F)F)cc1 [Compound 12] ... 80 to 100%
CCOc1ccc(C(CCCc2cccc(Oc3ccccc3)c2)C(F)(F)F)cc1 (racemic) [Compound 2] ... 80 to 100%

Pending compound:
## Input What mortality at 500 ppm value was documented for this compound, COc1ccc(C(CCCc2cccc(Oc3ccccc3)c2)C(F)(F)F)cc1 (racemic) [Compound 49] ?
## Output < 50%

---

Below, each entry is listed with its recorded mortality at 250 ppm.
Tested on: Heliothis virescens (tobacco budworm - larvae)
Test: Residual test, tobacco budworm - larvae (HV), Cotton leaf
Format: in vivo
Conditions: 72 h, read-out: HV grading of mortality

Use the examples below as a reference point.
CCOc1ccc(/C(=C\C=C\c2ccc(F)c(Oc3ccccc3)c2)C(F)(F)F)cc1 ... 80 to 100%
FC(F)(F)Oc1ccc(C(Cl)(CCCc2cccc(Oc3ccccc3)c2)C(F)(F)F)cc1 (racemic) ... < 50%
Fc1ccc(C(CCCc2cccc(Oc3ccccc3)c2)C(F)(F)F)cc1 (racemic) ... 80 to 100%
CCOc1ccc(C(CCCc2ccc(F)c(Oc3ccccc3)c2)C(F)(F)F)cc1 (racemic) ... 80 to 100%
CC(C)(C)c1ccc(C(=CCCc2cccc(Oc3ccccc3)c2)C(F)(F)F)cc1 ... < 50%

## Input What mortality at 250 ppm value was documented for this molecule, CCOc1ccc(C(C/C=C/c2cccc(Oc3ccccc3)c2)C(F)(F)F)cc1 (centres unmarked) ?
## Output < 50%

## Input Would you mind doing `FC(F)(F)Oc1ccc(C(=CCCc2cccc(Oc3ccccc3)c2)C(F)(F)F)cc1` as well?
## Output 80 to 100%
